molecular target: T1, CLDN18.2 (CLDN18.2-Flag 293t cells) (Homo sapiens, UniProt P56856); assay: Binding specificity, 293t cells expressing CLDN18.2-Flag, flow cytometry; conditions: 10 μg/ml antibody, 4° C. 1 hour
T1 construct: expressed in transfected cells; host or cells: 293t cells, transient transfection
property.measured: binding to CLDN18.2-flag transfected positive 293t cells

18.2-A1: recombinant monoclonal CLDN18.2 antibody, VH SEQ ID NO: 1, VL SEQ ID NO: 6 (antibody, V domains shown, 18.2-A1 VH; 18.2-A1 VL) VH: EVQLVQSGAEVKKPGASVKVSCKASGYTFTSSWLIWVRQAPGQGLEWIGTIVPSDSYTNYNQKFKDRATLTVDKSTSTAYMELSSLRSEDTAVYYCTRFRTGNSFDYWGQGTLVTVSS VL: DIVMTQSPDSLSVGLGERATINCKSSQSVLNSGNQKNYLTWYQQKPGQPPKLLIYWAVARQSGVPDRFSGSGSGTDFTLTISSLQAEDVAVYYCQNSIAYPFTFGQGTKVEIK; able to bind well
18.2-A5: recombinant monoclonal CLDN18.2 antibody, VH SEQ ID NO: 41, VL SEQ ID NO: 46 (antibody, V domains shown, 18.2-A5 VH; 18.2-A5 VL) VH: EVQLVQSGAEVKKPGASVKVSCKASGYTFTSSWVGWVRQAPGQGLEWIGNSYPSDSYTNYNQKFKDRATLTVDKSTSTAYMELSSLRSEDTAVYYCTRLGRGNSFDYWGQGTLVTVSS VL: DIVMTQSPDSLTVALGERATINCKSSQSLIHSGNQKNYLTWYQQKPGQPPKLLIYWGLSKNSGVPDRFSGSGSGTDFTLTISSLQAEDVAVYYCQNSIYYPFTFGQGTKVEIK; able to bind well
18.2-A2: recombinant monoclonal CLDN18.2 antibody, VH SEQ ID NO: 11, VL SEQ ID NO: 16 (antibody, V domains shown, 18.2-A2 VH; 18.2-A2 VL) VH: EVQLVQSGAEVKKPGASVKVSCKASGYTFTSFWVGWVRQAPGQGLEWIGNVSPSDSYTNYNQKFKDRATLTVDKSTSTAYMELSSLRSEDTAVYYCTRLSSGNSFDYWGQGTLVTVSS VL: DIVMTQSPDSLSVSLGERATINCKSSQSVLNSGNQKNYLTWYQQKPGQPPKLLIYWSSTKQSGVPDRFSGSGSGTDFTLTISSLQAEDVAVYYCQNAFSFPFTFGQGTKVEIK; able to bind well
